Recorded pest or weed control at 1 µg/mL, one value per entry.
Test system: Plutella xylostella
Experiment: Insecticidal activity against Plutella xylostella (Airbrush spray on cabbage leaf discs)
Format: in vivo
Details: Plutella xylostella, foliar, 72 h, read-out: Fatality rate (%, 3 d after administration) 1 mg/L, Table 73, 1 mg/L, 3 d after administration

| Compound | pest or weed control at 1 µg/mL (%) |
| --- | --- |
| NC(=O)CCN(C(=O)c1ccccc1)c1cccc(C(=O)N(CCC(N)=O)c2c(Br)cc(C(F)(C(F)(F)F)C(F)(F)F)cc2C(F)(F)F)c1F [CK6, reference compound] | 68 |
| CN(C(=O)c1ccccc1)c1cccc(C(=O)N(CC#N)c2c(Br)cc(C(F)(C(F)(F)F)C(F)(F)F)cc2Br)c1F | 100 |
| N#CCN(C(=O)c1ccccc1)c1cccc(C(=O)Nc2c(Br)cc(C(F)(C(F)(F)F)C(F)(F)F)cc2Br)c1F | 100 |
| N#CCN(C(=O)c1cccc(NC(=O)c2ccccc2)c1F)c1c(Br)cc(C(F)(C(F)(F)F)C(F)(F)F)cc1Br | 100 |
| N#CCN(C(=O)c1ccccc1)c1cccc(C(=O)N(CC#N)c2c(Br)cc(C(F)(C(F)(F)F)C(F)(F)F)cc2Br)c1F | 100 |
